System: P. falciparum Dd2-2D4
Measurement Description: P. falciparum asexual blood stage growth assay, wild-type Dd2-2D4
Assay Context: Plasmodium falciparum, DD2, 72 h, read-out: Dd2 (EC50 [nM]) wt
Counter-ions that a name gives are not always drawn.
Measured Attribute: EC50

So what's the measured EC50 for this one? O=C(NC1Cc2ccccc2C1)c1nccnc1NC(=O)C1CCOCC1
> 20000 nM

Follow-up entry: C[C@@H]1CCC[C@H](C)N1C(=O)Nc1nccnc1C(=O)NC1Cc2ccccc2C1
> 10000 nM

And then O=C(NS(=O)(=O)N1CCN(C(=O)Nc2nccnc2C(=O)NC2Cc3ccccc3C2)CC1)OCCn1cnc2ccccc2c1=O , what is it?
> 10000 nM

Queued: CC(C)N(C(=O)Nc1nccnc1C(=O)NC1Cc2ccccc2C1)C(C)C
> 10000 nM

Likewise for NCCCCCC(=O)NCC1CCN(C(=O)Nc2nccnc2C(=O)NC2Cc3ccccc3C2)CC1 [Compound 44, dihydrochloride] ?
> 10000 nM
